tested on: HEK293 cells; experiment: MTT cell viability assay, HEK293; format: cell-based, human; conditions: Homo sapiens, HEK293, 72 h, nonmalignant cells, read-out: IC50 ± SD, growth inhibition, HEK293
pIC50: −log10 of the molar value.
Catalogue of pIC50 readings, one per entry.

molecule | system_name | comparison_sign | pIC50
CC(=O)N1N=C(c2ccc3c(c2)OCO3)CC1c1ccc2c(c1)OCO2 (centres unmarked) [PCH-5] | HEK293 cells | = | 4.33
CC(=O)N1N=C(c2ccc(C)cc2)CC1c1ccc2c(c1)OCO2 (centres unmarked) [PCH-3] | HEK293 cells | < | 4.00
COc1cc(C2=NN(C(C)=O)C(c3ccc4c(c3)OCO4)C2)cc(OC)c1OC (centres unmarked) [PCH-2] | HEK293 cells | < | 4.00
COc1ccc(C2=NN(C(C)=O)C(c3cc4c(cc3OC)OCO4)C2)cc1 (centres unmarked) [PCH-8] | HEK293 cells | < | 4.00
COc1ccc(C2=NN(C(C)=O)C(c3ccc4c(c3)CCO4)C2)cc1 (centres unmarked) [PCH-7] | HEK293 cells | < | 4.00
COc1ccc(C2CC(c3cc4c(cc3OC)OCO4)=NN2C(C)=O)cc1 (centres unmarked) [PCH-1] | HEK293 cells | = | 4.68
O=c1[nH]cc(F)c(=O)[nH]1 [5-FU, 5-fluorouracil, reference compound] | HEK293 cells | = | 4.96
COc1cc([C@@H]2c3cc4c(cc3[C@@H](O[C@@H]3O[C@@H]5CO[C@@H](C)O[C@H]5[C@H](O)[C@H]3O)[C@H]3COC(=O)[C@H]23)OCO4)cc(OC)c1O [Etoposide, reference compound] | HEK293 cells | = | 5.72

* * *

system: HEK293 cells; assay: MTT cell viability assay, HEK293; type: cell-based, human; conditions: Homo sapiens, HEK293, 72 h, nonmalignant cells, read-out: IC50 ± SD, growth inhibition, HEK293
pIC50: −log10 of the molar value.
Reported pIC50 by item:

molecule | comparison_sign | pIC50
COc1cc2c(cc1C1=NN(C(C)=O)C(c3ccc(O)cc3)C1)SCO2 (stereo not drawn) [PCH-9] | = | 4.46
COc1ccccc1C1=NN(C(C)=O)C(c2ccc3c(c2)OCO3)C1 (stereo not drawn) [PCH-4] | < | 4.00
CC(=O)N1N=C(c2ccc(OC(F)(F)F)cc2)CC1c1ccc2c(c1)OCO2 (stereo not drawn) [PCH-6] | = | 4.37

* * *

system: H460 cells; assay: MTT cell viability assay, H460; type: cell-based, human; settings: 72 h, MTT; read-out: IC50 ± SD, growth inhibition, H460

molecule | IC50, µM
N.N.[Cl][Pt][Cl] [Cisplatin, reference compound] | 21.5
